Values compiled from ChEMBL document CHEMBL3580601.

# assay.info: Half life in human liver microsomes
# Format: ADME
property: half-life (min)

COC(=O)Nc1ccc(-c2nc([C@H](CC(=O)N3CCN(C(C)=O)CC3)NC(=O)/C=C/c3cc(Cl)ccc3-n3cnnn3)[nH]c2Cl)cc1 : 45

1. COC(=O)Nc1ccc(-c2nc([C@H](CC(=O)N3CCOCC3)NC(=O)/C=C/c3cc(Cl)ccc3-n3cnnn3)[nH]c2Cl)cc1
2. O=C(/C=C/c1cc(Cl)ccc1-n1cnnn1)N[C@@H](Cc1ccccc1)c1nc(-c2ccc3[nH]c(=O)cc(O)c3c2)c(Cl)[nH]1
Q: Please tell me which of the two, 1 or 2 , has the higher reported half-life value. // return label of chosen record
A: 2
(2: 56 min, 1: 6.2 min)

----------
# assay.info: Unbound fraction in cynomolgus monkey plasma
# Assay type: ADME, cell-free, Macaca fascicularis
property: fraction unbound
Please reply with the value in numeric form only.

Q: Answer with reported fraction unbound of CN1CCN(C(=O)C[C@H](NC(=O)/C=C/c2cc(Cl)ccc2-n2cnnn2)c2nc(-c3ccc4[nH]c(=O)cc(O)c4c3)c(Cl)[nH]2)CC1
A: 0.08

----------
# assay.info: Unbound fraction in dog plasma
# Format: ADME, cell-free, Canis lupus familiaris
property: fraction unbound
Please reply with the value in numeric form only.

Q: Answer with reported fraction unbound of CN1CCN(C(=O)C[C@H](NC(=O)/C=C/c2cc(Cl)ccc2-n2cnnn2)c2nc(-c3ccc4[nH]c(=O)cc(O)c4c3)c(Cl)[nH]2)CC1
A: 0.18

----------
# measured.on: Coagulation factor XI (Homo sapiens)
# Sequence (P03951 19-387 limits assumed): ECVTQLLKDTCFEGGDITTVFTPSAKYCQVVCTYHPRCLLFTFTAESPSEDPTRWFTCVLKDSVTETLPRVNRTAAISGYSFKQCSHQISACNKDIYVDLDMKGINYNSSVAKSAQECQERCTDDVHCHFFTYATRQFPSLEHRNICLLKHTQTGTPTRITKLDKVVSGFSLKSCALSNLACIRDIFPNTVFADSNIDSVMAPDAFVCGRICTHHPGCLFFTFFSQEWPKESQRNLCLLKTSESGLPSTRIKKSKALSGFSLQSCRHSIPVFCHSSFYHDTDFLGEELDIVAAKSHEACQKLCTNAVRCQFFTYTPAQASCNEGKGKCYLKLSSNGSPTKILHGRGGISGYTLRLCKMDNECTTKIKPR
# Sequence (P03951 388-625 limits assumed): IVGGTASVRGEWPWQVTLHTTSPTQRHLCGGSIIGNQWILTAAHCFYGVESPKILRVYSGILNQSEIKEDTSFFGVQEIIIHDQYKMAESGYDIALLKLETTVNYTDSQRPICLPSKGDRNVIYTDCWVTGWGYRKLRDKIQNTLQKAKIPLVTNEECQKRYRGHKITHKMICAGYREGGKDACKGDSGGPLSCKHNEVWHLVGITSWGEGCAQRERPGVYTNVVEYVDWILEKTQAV
# assay.info: Inhibition of human coagulation factor 11a using p-nitroaniline as substrate assessed as substrate hydrolysis at 37 degC by spectrophotometry
property: pKi
// pKi here means minus log10 of the molar concentration (mol/L)

Q: Answer with reported pKi of CN1CCN(C(=O)C[C@H](NC(=O)/C=C/c2cc(Cl)ccc2-n2cnnn2)c2nc(-c3ccc4[nH]c(=O)cc(O)c4c3)c(Cl)[nH]2)CC1
A: 10.00

----------
# measured.on: Tissue-type plasminogen activator (Homo sapiens)
# Sequence (P00750 whole entry): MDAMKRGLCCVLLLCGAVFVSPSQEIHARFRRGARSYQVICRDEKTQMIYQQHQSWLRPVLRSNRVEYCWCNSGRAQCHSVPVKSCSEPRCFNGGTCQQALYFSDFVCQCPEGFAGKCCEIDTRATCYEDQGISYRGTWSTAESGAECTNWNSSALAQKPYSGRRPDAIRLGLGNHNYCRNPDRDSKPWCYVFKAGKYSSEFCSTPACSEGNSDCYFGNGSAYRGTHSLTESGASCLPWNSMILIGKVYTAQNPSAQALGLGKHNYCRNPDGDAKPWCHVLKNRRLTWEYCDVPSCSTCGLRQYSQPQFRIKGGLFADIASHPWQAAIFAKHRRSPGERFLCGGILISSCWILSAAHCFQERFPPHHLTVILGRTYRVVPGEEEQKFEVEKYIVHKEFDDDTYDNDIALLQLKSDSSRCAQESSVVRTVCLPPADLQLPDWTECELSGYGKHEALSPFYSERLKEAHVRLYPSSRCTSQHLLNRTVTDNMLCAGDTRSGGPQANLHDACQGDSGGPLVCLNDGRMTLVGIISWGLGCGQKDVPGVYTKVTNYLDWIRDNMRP
property: Ki (µM)
Just the number please, in µM, no unit attached.

Q: Answer with reported Ki of CN1CCN(C(=O)C[C@H](NC(=O)/C=C/c2cc(Cl)ccc2-n2cnnn2)c2nc(-c3ccc4[nH]c(=O)cc(O)c4c3)c(Cl)[nH]2)CC1
A: 29

----------
# assay.info: Half life in rabbit at 1 mg/kg, iv
# Type: ADME, organism-based, Oryctolagus cuniculus
# particulars: in vivo
property: half-life (h)
Just the number please, in h, no unit attached.

Q: Answer with reported half-life of CN1CCN(C(=O)C[C@H](NC(=O)/C=C/c2cc(Cl)ccc2-n2cnnn2)c2nc(-c3ccc4[nH]c(=O)cc(O)c4c3)c(Cl)[nH]2)CC1.Cl
A: 1.1

----------
# measured.on: UniProt P03951
# assay.info: Inhibition of human coagulation factor 11a using p-nitroaniline as substrate assessed as substrate hydrolysis by spectrophotometry
property: Ki (pM)

These solved cases illustrate the format of a correct answer.
O=C(CCc1cc(Cl)ccc1-n1cnnn1)N[C@@H](Cc1ccccc1)c1nc(-c2ccc3[nH]c(=O)cc(O)c3c2)c(Cl)[nH]1 : 320
COC(=O)Nc1ccc(-c2nc([C@H](CC(=O)N3CCOCC3)NC(=O)/C=C/c3cc(Cl)ccc3-n3cnnn3)[nH]c2Cl)cc1 : 700
Cc1ccc(-n2cnnn2)c(CCC(=O)N[C@@H](Cc2ccccc2)c2nc(-c3ccc4[nH]c(=O)cc(O)c4c3)c(Cl)[nH]2)c1 : 500

1. COC(=O)Nc1ccc(-c2nc([C@H](CC(=O)N3CCN(C)CC3)NC(=O)/C=C/c3cc(Cl)ccc3-n3cnnn3)[nH]c2Cl)cc1
2. Cc1ccc(-n2cnnn2)c(CCC(=O)N[C@@H](Cc2ccccc2)c2nc(-c3ccc4[nH]c(=O)ccc4c3)c(Cl)[nH]2)c1
Q: // which entry reports the smaller Ki, 1 or 2 ? // return label of chosen record
A: 1
(1: 400 pM, 2: 12000 pM)
